Target: Retinoblastoma-associated protein (Homo sapiens)
Sequence (P06400 whole entry): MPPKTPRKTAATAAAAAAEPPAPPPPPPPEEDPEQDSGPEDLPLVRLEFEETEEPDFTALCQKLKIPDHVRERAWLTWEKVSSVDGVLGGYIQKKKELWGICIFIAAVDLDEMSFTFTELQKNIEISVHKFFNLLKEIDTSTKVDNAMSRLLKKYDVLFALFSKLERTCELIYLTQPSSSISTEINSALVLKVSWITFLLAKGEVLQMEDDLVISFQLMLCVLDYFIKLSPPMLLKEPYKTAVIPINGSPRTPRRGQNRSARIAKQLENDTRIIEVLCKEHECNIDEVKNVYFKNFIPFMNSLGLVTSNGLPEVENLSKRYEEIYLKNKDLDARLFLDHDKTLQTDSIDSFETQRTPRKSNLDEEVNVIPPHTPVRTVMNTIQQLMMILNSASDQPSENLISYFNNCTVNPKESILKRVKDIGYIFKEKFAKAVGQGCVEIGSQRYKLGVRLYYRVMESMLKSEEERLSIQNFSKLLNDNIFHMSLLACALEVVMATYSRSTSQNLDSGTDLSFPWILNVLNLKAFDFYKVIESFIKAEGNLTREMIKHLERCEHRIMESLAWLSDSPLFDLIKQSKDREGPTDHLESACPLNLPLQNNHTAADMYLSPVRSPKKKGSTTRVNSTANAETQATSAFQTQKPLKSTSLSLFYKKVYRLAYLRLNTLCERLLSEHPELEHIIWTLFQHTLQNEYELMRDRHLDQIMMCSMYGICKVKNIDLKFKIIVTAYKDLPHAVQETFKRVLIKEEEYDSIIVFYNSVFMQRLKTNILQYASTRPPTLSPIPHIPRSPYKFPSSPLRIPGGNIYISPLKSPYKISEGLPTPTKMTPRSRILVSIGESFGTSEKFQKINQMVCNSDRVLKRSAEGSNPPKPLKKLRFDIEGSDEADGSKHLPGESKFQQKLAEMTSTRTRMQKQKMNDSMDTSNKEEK
Experiment: Inhibition of retinoblastoma protein phosphorylation in human MDA-MB-231 cells after 16 hrs by Hoechst 33342 staining based fluorescence assay
Readout Label: IC50 (µM)
Express the result in µM but write the number alone.

Input CC1CCC(NC2CCCc3c2[nH]c2ccccc32)C1 (stereo unspecified) . Output IC50: 15

###

molecular target: Retinoblastoma-associated protein (Homo sapiens); assay: ChEBML_1684306
For each record, write down the corresponding IC50.
State just the number; it will be interpreted in µM.

# Cc1ccc2[nH]c3c(c2c1)CCC(NC1CCC(C)C1)C3 (configuration not stated) with Retinoblastoma-associated protein (Homo sapiens): IC50 is 2

Short answer on Retinoblastoma-associated protein (Homo sapiens) for Cc1ccc(CNC2CCc3c(n(C)c4ccccc34)C2)cc1 (configuration not stated) , IC50: 3.5

IC50 for Retinoblastoma-associated protein (Homo sapiens) with input c1ccc2c3c([nH]c2c1)C(NC1CCCCC1)CCC3 (configuration not stated) equals 15

IC50 for Retinoblastoma-associated protein (Homo sapiens) with input O=S(=O)(NC1CCCc2c1[nH]c1ccccc21)c1ccc(F)cc1 (configuration not stated) equals 9.2

# lookup: Cc1ccc(CNC2CCc3c([nH]c4ccc(C)cc34)C2)cc1 (configuration not stated) on Retinoblastoma-associated protein (Homo sapiens), IC50 = 2.9

With Retinoblastoma-associated protein (Homo sapiens) as the test system, Cc1ccc(CNC2CCc3c([nH]c4ccccc34)C2)cc1 (configuration not stated) showed IC50 of 4.1

IC50 on Retinoblastoma-associated protein (Homo sapiens) for CC1CCC(NC2CCCc3c2[nH]c2ccc([N+](=O)[O-])cc32)C1 (configuration not stated) is 4.81

Entry O=C(NC1CCc2c([nH]c3ccccc23)C1)c1cccc(F)c1 (configuration not stated) , Retinoblastoma-associated protein (Homo sapiens) data, IC50 value: 100

# IC50 measured on Retinoblastoma-associated protein (Homo sapiens) for item c1ccc2c3c([nH]c2c1)CC(NC1CCCCC1)CC3 (configuration not stated) = 11

Lab entry: Retinoblastoma-associated protein (Homo sapiens) assay, compound O=S(=O)(NC1CCc2c([nH]c3ccccc23)C1)c1ccc(F)cc1 (configuration not stated) , IC50 = 9.5

Measured IC50 (Retinoblastoma-associated protein (Homo sapiens)), entry c1ccc(CNC2CCc3c([nH]c4ccccc34)C2)cc1 (configuration not stated) : 6.92

I looked up c1ccc2c3c([nH]c2c1)C(NC1CCCC1)CCC3 (configuration not stated) and its IC50 for Retinoblastoma-associated protein (Homo sapiens) was 10

Here c1ccc2c3c([nH]c2c1)CC(NC1CCCC1)CC3 (configuration not stated) was tested on Retinoblastoma-associated protein (Homo sapiens), and its IC50 came to 10

Considering CC1CCC(NC2CCc3c([nH]c4ccccc34)C2)C1 (configuration not stated) , its IC50 with Retinoblastoma-associated protein (Homo sapiens) was recorded as 17.3

With Retinoblastoma-associated protein (Homo sapiens) as the test system, Cc1ccc2[nH]c3c(c2c1)CCC(NCc1ccccc1)C3 (configuration not stated) showed IC50 of 2.2
